The reported numbers originate from patent US20240360228A1.

target: T1, human CCR8 (human, UniProt P51685 1-355); experiment: flow blocking, PBMC CCR8+CD4+; competitor PE-AB10
T1 construct: Native CCR8 on human PBMC (CCR8+ CD3+ or CCR8+ CD4+ lymphocytes); also called chemokine (C-C motif) receptor 8
T1 sequence (P51685 whole entry): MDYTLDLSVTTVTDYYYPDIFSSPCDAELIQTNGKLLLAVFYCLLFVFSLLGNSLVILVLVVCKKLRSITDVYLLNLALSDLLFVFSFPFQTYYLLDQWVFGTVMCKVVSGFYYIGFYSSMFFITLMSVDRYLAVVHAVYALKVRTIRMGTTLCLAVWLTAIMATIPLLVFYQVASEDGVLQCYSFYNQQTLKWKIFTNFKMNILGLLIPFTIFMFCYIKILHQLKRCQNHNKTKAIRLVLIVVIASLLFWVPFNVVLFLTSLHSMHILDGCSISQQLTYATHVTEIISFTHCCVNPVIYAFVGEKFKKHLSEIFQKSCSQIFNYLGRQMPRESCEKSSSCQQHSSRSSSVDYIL
observed_property: % Positive cells (%)
Write the answer as a number in %, unit excluded.

*Q* Look up % Positive cells of AB5 (antibody, V domains shown, Hybridoma monoclonal; Same VH/VL entries as AB6; also called antibody 5; clone 5) VH: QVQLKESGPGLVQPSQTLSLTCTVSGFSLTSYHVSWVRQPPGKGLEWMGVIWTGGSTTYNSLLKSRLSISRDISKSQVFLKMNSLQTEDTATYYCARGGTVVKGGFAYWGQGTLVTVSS VL: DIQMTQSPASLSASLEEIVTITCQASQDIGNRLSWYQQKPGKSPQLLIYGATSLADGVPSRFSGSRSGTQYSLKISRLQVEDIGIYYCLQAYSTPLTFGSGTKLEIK and report it.
*A* 1.4
